read-out: Intercellular Adhesion Molecule 1 (ICAM1), ICAM1 (gene 3383); test: LTEA_HepaRG_ICAM1: Life Technologies and Expression Analysis (LTEA) Assay for Intercellular Adhesion Molecule 1 (ICAM1) using HepaRG (AID 2283507); conditions: mRNA level, 48 h; actives raise or lower the signal
Calls of active or inactive are those of the source. Rule for the calls: active = hit-call score of the fitted dose curve at least 0.9, where 1 is the maximum; inactive = score below 0.9.
Possible outcomes: active, inactive

MOLECULE: CCCCCCCCn1sccc1=O
CLASS LABEL: inactive

MOLECULE: CCC[CH2][Sn]([Cl])([CH2]CCC)[CH2]CCC
CLASS LABEL: inactive

MOLECULE: Cc1ccc(N)cc1
CLASS LABEL: inactive

MOLECULE: N#CC(Br)(Br)C(N)=O
CLASS LABEL: inactive

MOLECULE: c1ccc(N=Nc2ccccc2)cc1
CLASS LABEL: inactive

MOLECULE: Nc1ccc(N=Nc2ccccc2)cc1
CLASS LABEL: active

MOLECULE: C[C@]12C=CC3=C4CCC(=O)C=C4CC[C@H]3[C@@H]1CC[C@@H]2O
CLASS LABEL: inactive

MOLECULE: C[N+](C)(C)CC1CO1 (centres undefined)
CLASS LABEL: inactive

MOLECULE: O=C(Oc1ccc(Br)cc1)N1CCN2CCC1CC2
CLASS LABEL: inactive

MOLECULE: Oc1ccccc1Cl
CLASS LABEL: inactive

MOLECULE: CC(C)N(Cc1ccccc1)C(=O)C(C)(C)C
CLASS LABEL: inactive

MOLECULE: Oc1ccc2ccc3cccc4ccc1c2c34
CLASS LABEL: inactive

MOLECULE: Nc1ccc(Oc2ccc(N)cc2)cc1
CLASS LABEL: inactive

MOLECULE: Cn1cc(-c2ccccc2)c(=O)c(-c2cccc(C(F)(F)F)c2)c1
CLASS LABEL: inactive
